# System: glycogen synthase kinase-3 (GSK3A per assay name; protocol says GSK3B)
# protocolDescription: compounds binding glycogen synthase kinase-3 – biochemical, small-molecule microarray, 635 nm fluorescence, GSK3A, primary screen (AID 1103); further: the record names both GSK3A and GSK3B
# experimentalSetup: fluorescence 635 nm, higher = more signal
propertyLabel: composite z-score
Please respond with just the number, no unit label.

- O=C1C[C@@](C(=O)NCc2ccccc2)(c2ccc([N+](=O)[O-])cc2)[C@@H](c2ccc(CO)cc2)N1C1CCCCC1: 0.97

*Q* Reported composite z-score for "C=C(/C(=C/C[C@@H](OC(C)=O)c1cccc(OCCO)c1)c1cnc2ccccc2c1)C(C)C" : what is it?
*A* 0.612

====

# protocolDescription: COS7 lysate on small-molecule microarray, probe aHis, 635 nm (AID 1123);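 further: z-score combines 667nm fluorescence intensity with signal-to-noise per printed compound spot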
# experimentalSetup: COS7 cell lysate, fluorescence, higher = more signal
propertyLabel: composite z-score
Answer using only a numeral; do not append any unit.

Below, 3 compounds whose answers are already recorded.
• Cc1ccc(S[C@]2(C(=O)NCc3ccccc3)CC(=O)N(Cc3ccccc3C(F)(F)F)[C@@H]2c2ccc(CO)cc2)cc1 = 0.397
• CC(C)(C)OC(=O)CC[C@]1(C(=O)NCC(O)CO)N=C(c2ccc(OCCCO)cc2)O[C@H]1c1ccccc1N=[N+]=[N-] (some centres undefined) = 3.53
• COCCOC(=O)N1C(=O)[C@@]2(c3cc(C#CCCO)ccc31)[C@H](c1ccccc1OCCO)N1[C@H](c3ccccc3)[C@H](c3ccccc3)OC(=O)[C@H]1[C@@H]2C(N)=O = 1.89

Here's the next entry for you.
*Q* Data request, read-out composite z-score, for "CO[C@H]1O[C@H](CO)[C@@H](OC(=O)Nc2ccccc2)[C@H](OC(=O)Nc2ccccc2)[C@H]1OC(=O)Nc1ccccc1"
*A* 2.45

====

The entries below are paired with their reported composite z-score.
# protocolDescription: probe aLefty2 binding to arrayed compounds – biochemical, biotinylated probe, 635/667 nm fluorescence, primary screen (AID 1094);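 further: score merges spot fluorescence near 667 nm with spot signal-to-noise ratio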
# experimentalSetup: small-molecule microarray, higher = more signal

- Cc1ccc(S[C@]2(C(=O)NCC(F)(F)F)CC(=O)N(Cc3ccccc3C(F)(F)F)[C@@H]2c2ccc(CO)cc2)cc1: 0.145
- C=C(C)[C@@H]1CC=C(C(O)C2C=CC3C(=O)N(c4ccccc4)C(=O)C3N2Nc2ccc([N+](=O)[O-])cc2)CC1 (some centres not stated): -0.0357
- COc1ccc(C(O)C2C=CC3C(=O)NC(=O)C3N2Nc2ccc(Cl)cc2Cl)c2ccccc12 (configuration not stated): -0.279
- CC1CC/C=C\[C@H]2OC34C=CCN(c5ccc6ccccc6c5)C(=O)[C@H]3N(C(C)CO)C(=O)[C@@H]4C2C(=O)O1 (some centres not stated): -0.244
- C=CCC(OC(C)=O)[C@@H]1[C@@H](N(Cc2cc3ccccc3o2)C(=O)c2cccc3ccccc23)c2cc(OCCCO)ccc2N1C(=O)c1ccc2ccccc2n1 (some centres not stated): -0.0285
- C=CCNC(=O)[C@H]1[C@@H]2C(=O)O[C@@H](c3ccccc3)[C@@H](c3ccccc3)N2[C@@H](c2ccccc2OCCO)[C@]12C(=O)N(C(=O)OCCOC)c1ccc(C#Cc3ccc(OC)cc3)cc12: -0.0998

*Q* What does the record list as composite z-score for "CC(C)[Si](C#CCCc1ccccc1)(O[C@H](c1ccccc1)c1cn(Cc2ccccc2)nn1)C(C)C" ?
*A* -0.0095

====

# protocolDescription: probe aShh binding to arrayed compounds – biochemical, biotinylated probe, 635/667 nm fluorescence, primary screen (AID 1114);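 further: probe is biotin-labelled aShh protein from a stem cell growth factor screen; measures binding of labelled protein to compounds printed on the slide; score merges feature fluorescence at 667 nm with signal-to-noise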
# experimentalSetup: small-molecule microarray, higher = more signal
composite z-score overview
Number only, please.

Consider the reported composite z-score for these compounds:
* CC(C)c1nc2cc(Br)ccc2c(=O)o1 | -0.427
* CC(C)=C1C(=O)C(c2ccccc2)=C2CN3C(=O)N(CCc4ccccc4)C(=O)[C@]3(C)[C@H]21 | 0.748

*Q* Query: composite z-score; subject: "CO[C@H]1O[C@H](CO)[C@@H](OC(=O)Nc2ccccc2)[C@H](OC(=O)Nc2ccccc2)[C@H]1OC(=O)Nc1ccccc1"
*A* -0.0709

*Q* composite z-score lookup needed for CC(C)=CCCC(C)=CC(O)C1C=CC2C(=O)NC(=O)C2N1Nc1ccc(Cl)cc1Cl (centres undefined) , thanks.
*A* 0.14

*Q* Look up composite z-score for this compound: "C[C@@H]1ON(c2ccccc2)[C@H](c2ccccc2)[C@H]1C(=O)O"
*A* -0.2

*Q* # get_value(readout='composite z-score', item= "Cc1ccc(S[C@]2(C(=O)NC(C)C)CC(=O)N(C3CCCCC3)[C@@H]2c2ccc(CO)cc2I)cc1" )
*A* -0.0035

*Q* Param item = NC(=O)N1C(=O)C2C(C1=O)C1C=C(CCCO)C2C(c2ccc(CN3CCCC3)cc2)N1Cc1sc2ccccc2c1Cl (centres undefined) ; retrieve measured composite z-score.
*A* -0.0146

*Q* Using the record for "C[N+](C)(C)CCCCNC(=O)[C@H]1C[C@H]2C(=O)N[C@@H](Cc3ccccc3)C(=O)N2[C@H]1c1cccc(OCCO)c1" , report its composite z-score.
*A* 0.151

*Q* Which composite z-score is listed for O=C1NC(=O)C2C1C=CC(C(O)c1ccc(B(O)O)cc1)N2Nc1ccc(Cl)cc1Cl (centres undefined) ?
*A* -0.181

====

# protocolDescription: basal CRE-LacZ reporter activity in PC12 – cell-based, unstimulated, primary screen (AID 1145)
# experimentalSetup: no forskolin, luminescence, 4.5 h, higher = more signal, called active from +8 up or from −8 down
Could you label it 1 (yes) if measured z-score is -0.05 or higher, and 0 (no) otherwise?

Take a look at these entries with their results.
- [N-]=[N+]=Nc1ccccc1C[C@@]1(C(=O)NCC(O)CO)N=C(c2ccc(OCCCO)cc2)O[C@@H]1c1ccccc1 (stereo partly specified): 0 (no)
- C=C(C)[C@@H]1CC=C(C(O)C2C=CC3C(=O)N(C)C(=O)C3N2Nc2ccc([N+](=O)[O-])cc2[N+](=O)[O-])CC1 (stereo partly specified): 1 (yes)

*Q* # bool: z-score of "O=C(NC1CC1)[C@@H]1c2ccccc2C(=O)N(Cc2ccc(OC(F)(F)F)cc2)[C@H]1c1ccc(CO)cc1" >= -0.05
*A* 1 (yes)

*Q* Test whether the compound "O=C1[C@H]2C=C(I)[C@H](C[C@@H]2c2ccccc2)[C@@]12CO2" records z-score of -0.05 or higher.
*A* 1 (yes)

*Q* Could you verify whether the entry "C=C(COC)C(=O)CC[C@@H](OC(=O)c1ccccc1-c1ccccc1C(=O)O)c1ccc(OCCO)cc1" shows z-score of no less than -0.05?
*A* 1 (yes)

*Q* Does the compound "CCCC#C[Si](O[C@H](CC)c1cn(Cc2ccccc2)nn1)(C(C)C)C(C)C" have recorded z-score that is -0.05 or more?
*A* 0 (no)

*Q* Determine whether measured z-score meets or exceeds -0.05 for "COc1cc(CO)cc(I)c1O[C@H]1C=C(C(=O)NCCO)C[C@@H]2O[C@H]12"
*A* 1 (yes)

====

# protocolDescription: blockers of DNA damage checkpoint Chk1 activation – imaging, HeLa, hydroxyurea, phospho-Chk1 antibody, percent positive cells, primary screen (AID 1186)
# experimentalSetup: hydroxyurea-induced phospho-Chk1 immunofluorescence imaging, higher = more signal
propertyLabel: z-score
Note: the reply should be a number with no unit written.

Field: example entries. Status: answers known.
- COc1ccc(C(O)C2C=CC3C(=O)N(c4ccccc4)C(=O)C3N2Nc2ccc(C#N)cc2)cc1OCc1ccccc1 (centres undefined): -0.405
- COCCOC(=O)N1C(=O)[C@@]2(c3cc(C#CCNC(N)=O)ccc31)[C@H](C(=O)Nc1nc3ccccc3s1)[C@H]1C(=O)O[C@H](c3ccccc3)[C@H](c3ccccc3)N1[C@@H]2c1ccccc1OCCO: -0.339
- O=C1C[C@]2(c3ccc([N+](=O)[O-])cc3)C(=O)N(C3CC3)c3cc(CO)ccc3[C@H]2N1C1CCCCC1: -0.214

*Q* Bench note: what z-score did CN1C(=O)C2C(C3CC3)C=C3CN(Cc4cccc(Cl)c4)[C@@H]([C@@H](O)Cc4ccccc4)C3C2C1=O (some centres undefined) show?
*A* -1.34

*Q* Form field: reported z-score of CC1CC/C=C\[C@H]2OC34C=CCN(c5ccc6ccccc6c5)C(=O)[C@H]3N(C(C)CO)C(=O)[C@@H]4C2C(=O)O1 (some centres undefined)
*A* 0.0352

*Q* I have this compound here, CCCc1cc2c(n1CCc1ccc(Cl)cc1)C(C)C1CN(C(=O)c3ccccc3)C(C)(C(=O)OC)C21 (centres undefined) , and I need its recorded z-score.
*A* 0.853

*Q* Query (compound): "CCOC(=O)C1=C[C@@H](C(C)(C)C)N(S(=O)(=O)c2ccc(C)cc2)[C@H]1c1ccc(C#N)cc1" ; field requested: z-score
*A* 0.892

*Q* Which z-score value is on record for "COC(=O)[C@@]1(Cc2ccccc2)[C@H]2c3cc(C(=O)N(C)C)n(CCSC(=N)N)c3C[C@H]2CN1C(=O)c1ccccc1" ?
*A* 0.835
